system: HEK-293T; assay: Cytotoxicity against human HEK293T cells assessed as reduction in cell viability at 10 uM measured after 24 hrs by CCK8 assay; format: cell-based
outcome-measure: Activity

| structure | observed |
| --- | --- |
| C=C1[C@H](OC(C)=O)C[C@H]2[C@@H](/C=C(\C)C(=O)[C@@]3(O)C[C@H](C)[C@H](OC(C)=O)[C@@H]3[C@H]1OC(C)=O)C2(C)C | Non-Toxic |
| CC(=O)OC/C1=C/C[C@H]2[C@@H](/C=C(\C)C(=O)[C@@]3(OC(C)=O)C[C@H](C)[C@H](OC(=O)c4ccccc4)[C@@H]3[C@H]1OC(C)=O)C2(C)C | Non-Toxic |
| C=C1[C@H](OC(=O)c2cccs2)C[C@H]2[C@@H](/C=C(\C)C(=O)[C@@]3(O)C[C@H](C)[C@H](O)[C@@H]3[C@H]1O)C2(C)C | Non-Toxic |
| C=C1[C@H](OC(=O)c2ccccc2)C[C@H]2[C@@H](/C=C(\C)C(=O)[C@@]3(O)C[C@H](C)[C@H](O)[C@@H]3[C@H]1OC(=O)c1ccccc1)C2(C)C | Non-Toxic |

# input for lookup
Test system HEK-293T; read-out Activity; what value for `C=C1C(=O)C[C@H]2[C@@H](/C=C(\C)C(=O)[C@@]3(OC(C)=O)C[C@H](C)[C@H](OC(=O)c4ccccc4)[C@@H]3[C@H]1OC(C)=O)C2(C)C` ?
Toxic

----------
tested on: HEK-293T; assay: Cytotoxicity against human HEK293T cells assessed as reduction in cell viability at 10 uM measured after 24 hrs by CCK8 assay; format: cell-based
outcome-measure: Activity

| structure | target | observed |
| --- | --- | --- |
| C=C1[C@H](OC(=O)c2ccccc2)C[C@H]2[C@@H](/C=C(\C)C(=O)[C@@]3(O)C[C@H](C)[C@H](OC(=O)c4ccccc4)[C@@H]3[C@H]1OC(C)=O)C2(C)C | HEK-293T | Non-Toxic |
| CC(=O)OC/C1=C/C[C@H]2[C@@H](/C=C(\C)C(=O)[C@@]3(O)C[C@H](C)[C@H](OC(C)=O)[C@@H]3[C@H]1OC(C)=O)C2(C)C | HEK-293T | Non-Toxic |
| C/C1=C\[C@@H]2[C@H](CC(=O)/C(COC(=O)c3ccccc3)=C/[C@H]3[C@@H](O)[C@@H](C)C[C@]3(O)C1=O)C2(C)C | HEK-293T | Non-Toxic |

----------
test system: HEK-293T; assay: Cytotoxicity against human HEK293T cells assessed as reduction in cell viability at 10 uM measured after 24 hrs by CCK8 assay; type: cell-based
outcome-measure: Activity

These recorded examples may help you get a feel for the data.
| structure | target | Activity |
| --- | --- | --- |
| C=C1[C@H](O)C[C@H]2[C@@H](/C=C(\C)C(=O)[C@@]3(OC(C)=O)C[C@H](C)[C@H](OC(=O)c4ccccc4)[C@@H]3[C@H]1OC(C)=O)C2(C)C | HEK-293T | Non-Toxic |
| C=C1CC[C@H]2[C@@H](/C=C(\C)C(=O)[C@@]3(O)C[C@H](C)[C@H](O)[C@@H]3[C@H]1O)C2(C)C | HEK-293T | Non-Toxic |
| C=C1[C@H](OC(=O)c2ccccc2)C[C@H]2[C@@H](/C=C(\C)[C@H](OC(C)=O)[C@@]3(O)C[C@H](C)[C@H](OC(=O)c4ccccc4)[C@@H]3[C@H]1OC(C)=O)C2(C)C | HEK-293T | Non-Toxic |
| C=C1[C@H](OC(C)=O)C[C@H]2[C@@H](/C=C(\C)C(=O)[C@@]3(O)C[C@H](C)[C@H](O)[C@@H]3[C@H]1O)C2(C)C | HEK-293T | Non-Toxic |
| C=C1CC[C@H]2[C@@H](/C=C(\C)C(=O)[C@@]3(OC(C)=O)C[C@H](C)[C@H](O)[C@@H]3[C@H]1OC(=O)/C=C/c1ccccc1)C2(C)C | HEK-293T | Toxic |

# input for lookup
Test system HEK-293T; read-out Activity; what value for `C=C(C)[C@@H]1/C=C/C(C)=C\[C@@]2(O)C[C@H](C)[C@H](OC(=O)c3ccccc3)[C@@H]2[C@@H](OC(C)=O)C(=C)CC1` ?
Non-Toxic
